Please go through the items and note down their fraction unbound at 4 h, 10 µM.
- Experiment Description: Plasma protein binding (ultracentrifugation)
- Assay type: in vitro ADME
- Run Parameters: pooled plasma, human plasma, read-out: Plasma protein binding fu
Give bare numbers.

C[C@H]1[C@H](N2C=CS(=O)(=O)CC2)O[C@@H]2O[C@@]3(C)CC[C@H]4[C@H](C)CC[C@@H]1[C@@]24OO3 : 0.25

Provide fraction unbound at 4 h, 10 µM for all items below, preserving their order.
1. C[C@H]1[C@H](N2CCSCC2)O[C@@H]2O[C@@]3(C)CC[C@H]4[C@H](C)CC[C@@H]1[C@@]24OO3 [Artemiside 5, artemiside]
2. C[C@H]1[C@H](N2CCN(C(=O)Nc3ccc(F)cc3)CC2)O[C@@H]2O[C@@]3(C)CC[C@H]4[C@H](C)CC[C@@H]1[C@@]24OO3

Result block:
1: 0.23; 2: 0.02
